System: SF-295 CNS
METHOD_SUMMARY: NCI tumour cell line growth inhibition, 48 h
OUTCOME_MEASURE: TGI

Entry CCOC(CN(C)C(=O)Nc1cccc2ccccc12)OCC — recorded TGI = > 10 µM

Entry O=[N+]([O-])O.[Cu+2].[NH-]CC[NH-].[NH-]CC[NH-] — recorded TGI = > 10 µM

API: the following record is the query input.
Entry O=C1/C(=C/c2cccc(F)c2)CCCc2ccccc21 — recorded TGI = 29.7 µM

---

System: SNB-75 CNS
METHOD_SUMMARY: NCI tumour cell line growth inhibition, 48 h; in the data active = GI50 below about 0.43 µM; inactive = the rest
Respond with a class label; see active, inactive

Illustrative cases are given below, each with its answer.
Write down the call the test reported for this compound. Item: COc1ccc(-c2nc(-c3nc4ccc(OC)cc4[nH]3)c3ccccn23)cc1
inactive

Write down the call the test reported for this compound. Item: CC(C)(C)OC(=O)N1CCN(CCn2cc(C(F)(F)F)c3c(Cl)ncnc32)CC1
inactive

Write down the call the test reported for this compound. Item: COc1cc(/C=C/C(=O)c2cccc(Nc3nc(Nc4ccccc4)nc(Nc4ccccc4)n3)c2)cc(OC)c1OC
inactive

Write down the call the test reported for this compound. Item: COc1c(C)c2c(c(O)c1C/C=C(\C)CCC(=O)O)C(=O)OC2
inactive

Write down the call the test reported for this compound. Item: COc1cc2c(c(OC)c1OC)-c1ccc(SC)c(=O)cc1C(CO)C2 (stereo not drawn)
active

Others:
Write down the call the test reported for this compound. Item: O=C([CH-]C(=O)c1ccccc1)c1ccccc1.O=C([CH-]C(=O)c1ccccc1)c1ccccc1.[La+3].[OH-].[OH3+]
inactive

Write down the call the test reported for this compound. Item: C#Cc1c(F)ccc2cc(O)cc(-c3ncc4c(N5CC6CCC(C5)N6)nc(OC[C@@]56CCCN5C[C@H](F)C6)nc4c3F)c12
inactive

Write down the call the test reported for this compound. Item: C=C(C)C(=O)O[C@H]1CC(=C)[C@@H]2C[C@H](O)[C@](O)(CCl)[C@@H]2[C@H]2OC(=O)C(=C)[C@@H]21
inactive
